# assayedTarget: Nuclear receptor subfamily 1 group I member 2 (Rattus norvegicus)
# protocolNotes: Rat pregnane X receptor (rPXR) activation by small molecules, qHTS assay (AID 1346983); further: on the % scale 0 is the no-effect control and ±100 the full control effect; nearly all actives have a fitted effect of over 20% in size
# testSettings: rPXR luciferase reporter cells, One-Glo luminescence, 24 h; active compounds read high
Results filed as inconclusive are left out.
Measured max activation by item
Your answer should be a plain number; it is taken to be in %.

Below, 10 molecules whose answers are already recorded.
molecule	assayedTarget	unitAbbrev	max activation
COc1ccc(-c2ccc3cc(C(=O)O)ccc3c2)cc1C12CC3CC(CC(C3)C1)C2	Nuclear receptor subfamily 1 group I member 2 (Rattus norvegicus)	%	-8.07
COc1ccc(CN2CCN(C(c3ccc(F)cc3)c3ccc(F)cc3)CC2)c(OC)c1OC	Nuclear receptor subfamily 1 group I member 2 (Rattus norvegicus)	%	-8.37
COc1ccc(C(=O)/C(Br)=C\C(=O)O)cc1	Nuclear receptor subfamily 1 group I member 2 (Rattus norvegicus)	%	-6.96
O=C(Oc1cccc2cccnc12)c1ccccc1	Nuclear receptor subfamily 1 group I member 2 (Rattus norvegicus)	%	-3.5
CCN(CC)CCNC(=O)c1c(C)[nH]c(/C=C2\C(=O)Nc3ccc(F)cc32)c1C	Nuclear receptor subfamily 1 group I member 2 (Rattus norvegicus)	%	-11.9
CCOC(=O)/C=C(C)/C=C/C=C(C)/C=C/c1c(C)cc(OC)c(C)c1C	Nuclear receptor subfamily 1 group I member 2 (Rattus norvegicus)	%	-4.32
CC(C)(C)C(=O)OCOC(=O)[C@@H]1N2C(=O)[C@@H](NC(=O)[C@H](N)c3ccccc3)[C@H]2SC1(C)C	Nuclear receptor subfamily 1 group I member 2 (Rattus norvegicus)	%	-1.52
NC(=O)NS(=O)(=O)c1ccc(N)cc1	Nuclear receptor subfamily 1 group I member 2 (Rattus norvegicus)	%	-4.58
O=C1Cc2cc(CCN3CCN(c4nsc5ccccc45)CC3)c(Cl)cc2N1	Nuclear receptor subfamily 1 group I member 2 (Rattus norvegicus)	%	-10.8
CC[C@H](c1ccc(O)cc1)[C@@H](CC)c1ccc(O)cc1	Nuclear receptor subfamily 1 group I member 2 (Rattus norvegicus)	%	-4.59

Output measured max activation for this item: Cc1c(C)c2c(c(C)c1OC(=O)CCC(=O)O)CC[C@@](C)(CCC[C@H](C)CCC[C@H](C)CCCC(C)C)O2
-1.35

Output measured max activation for this item: O=C(OC[C@H]1O[C@@H](OC(=O)c2cc(O)c(O)c(OC(=O)c3cc(O)c(O)c(O)c3)c2)[C@H](OC(=O)c2cc(O)c(O)c(OC(=O)c3cc(O)c(O)c(O)c3)c2)[C@@H](OC(=O)c2cc(O)c(O)c(OC(=O)c3cc(O)c(O)c(O)c3)c2)[C@@H]1OC(=O)c1cc(O)c(O)c(OC(=O)c2cc(O)c(O)c(O)c2)c1)c1cc(O)c(O)c(OC(=O)c2cc(O)c(O)c(O)c2)c1
-10.1

Output measured max activation for this item: CN1CCC(Nc2ncc3ncnc(Nc4ccc(F)c(Cl)c4)c3n2)CC1
-19.5

Output measured max activation for this item: CC1=C(C(=O)OC(C)C)C(c2cccc([N+](=O)[O-])c2)C(C(=O)OC2CN(C(c3ccccc3)c3ccccc3)C2)=C(N)N1 (stereo unspecified)
-6.42

Output measured max activation for this item: CC[C@@]1(O)C(=O)OCc2c1cc1n(c2=O)Cc2cc3c(CN(C)C)c(O)ccc3nc2-1
-5.54

Output measured max activation for this item: NC(=O)CC[C@@H]1NC(=O)[C@H](Cc2ccccc2)NC(=O)[C@H](Cc2ccc(O)cc2)NC(=O)CCSSC[C@@H](C(=O)N2CCC[C@H]2C(=O)N[C@@H](CCCN=C(N)N)C(=O)NCC(N)=O)NC(=O)[C@H](CC(N)=O)NC1=O
-2.21

====

# assayedTarget: Cytochrome P450 2C9 (Homo sapiens) (UniProt P11712)
# Sequence (P11712 whole entry, looked up): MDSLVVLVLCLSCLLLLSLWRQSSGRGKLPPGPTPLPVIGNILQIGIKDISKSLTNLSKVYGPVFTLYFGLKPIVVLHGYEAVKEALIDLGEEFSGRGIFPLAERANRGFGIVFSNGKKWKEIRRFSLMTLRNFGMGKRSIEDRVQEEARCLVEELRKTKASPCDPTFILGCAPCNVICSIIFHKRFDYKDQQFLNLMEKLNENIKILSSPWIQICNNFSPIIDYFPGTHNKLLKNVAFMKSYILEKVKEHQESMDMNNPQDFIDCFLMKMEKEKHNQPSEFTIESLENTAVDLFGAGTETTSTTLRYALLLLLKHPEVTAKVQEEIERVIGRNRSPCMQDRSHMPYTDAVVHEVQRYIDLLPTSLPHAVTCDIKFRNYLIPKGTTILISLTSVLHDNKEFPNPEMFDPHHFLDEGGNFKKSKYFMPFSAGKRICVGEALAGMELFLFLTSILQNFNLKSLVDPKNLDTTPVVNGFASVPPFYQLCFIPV
# protocolNotes: Cytochrome P450 Family 2 Subfamily C Member 9 (CYP2C9) small molecule antagonists: luciferase reporter qHTS assay (AID 1671198); further: nearly all actives have a fitted effect of over 50% in size
# testSettings: P450-Glo CYP2C9 enzyme assay, luciferin luminescence; series mostly up to 53 µM
Results filed as inconclusive are left out. Active and inactive are the calls of the source. Calls follow the shape of the dose curve; as a rule, active = well fitted inhibition curve with a large enough effect in the repeat runs; inconclusive = weak or mixed curves; inactive = no such curve, though single readings can be large or run the other way.
Choose the fitting class; nothing outside yes (1) (active), no (0) (inactive) is accepted.

Sample answers from the record:
Cc1cc(N)c(S(=O)(=O)O)cc1Cl yes (1)
C/C=C1/C(=O)C[C@H]2[C@@H]3CCC4=CC(=O)CC[C@]4(C)[C@H]3CC[C@]12C yes (1)
N#CC1(c2ccc(F)cc2)CCC(=O)CC1 no (0)
CCCCCCCCCCCC[N+](C)(C)CCCCCCCCCCCC yes (1)
Cc1ccc(O)c2ncccc12 no (0)
N#CSc1ccc(N)c([N+](=O)[O-])c1 yes (1)
CC(=O)SC[C@@H](Cc1ccccc1)C(=O)NCC(=O)OCc1ccccc1 yes (1)
O=C(O)c1ccc(Cl)c(Cl)c1 no (0)
O=C1C=CC(=O)N1c1ccc(Cc2ccc(N3C(=O)C=CC3=O)cc2)cc1 yes (1)
CCCCCCCCn1sc(Cl)c(Cl)c1=O yes (1)

GET /call?item= O=C(Nc1cccc([N+](=O)[O-])c1)c1cc2ccccc2cc1O returns the recorded outcome of this test.
yes (1)

GET /call?item= O=c1[nH]sc2cc(Cl)ccc12 returns the recorded outcome of this test.
yes (1)

GET /call?item= CCCCCOc1ccccc1/C(=C\SC)n1ccnc1 returns the recorded outcome of this test.
yes (1)

GET /call?item= OCc1c[nH]c2ccccc12 returns the recorded outcome of this test.
yes (1)

====

# protocolNotes: qHTS assay to identify small molecule agonists of the peroxisome proliferator-activated receptor delta (PPARd) signaling pathway - cell viability counter screen (AID 743211); further: on the % scale 0 is the no-effect control and ±100 the full control effect; nearly all actives have a fitted effect of over 55% in size
# testSettings: PPARd-bla HEK293H viability, CellTiter-Glo luminescence, 17 h; series mostly up to 62.6 µM
Inconclusive results are not listed. Activity calls are given as the source filed them. The call rests on the fitted dose curve; in most records, active means well fitted cell-killing curve with a large enough effect in the repeat runs; inconclusive means weak or mixed curves; inactive means no such curve, though single readings can be large or run the other way.
Choose the fitting class; nothing outside active, inactive is accepted.

CCN(C(=O)N(CC)c1ccccc1)c1ccccc1 inactive

Lab note: next compound to report on.
GET /call?item= COc1ccc(C(=O)/C(Br)=C\C(=O)O)cc1 returns the recorded outcome of this test.
inactive

====

# protocolNotes: qHTS assay to identify small molecule agonists of the TGF-beta/Smad signaling pathway - cell viability counter screen (AID 1346829); further: top concentration of the series differs between compounds; on the % scale 0 is the no-effect control and ±100 the full control effect; nearly all actives have a fitted effect of over 45% in size
# testSettings: SBE-bla HEK293T viability, CellTiter-Glo luminescence, 5 h; series mostly up to 76.8 µM
Results filed as inconclusive are left out. The source made the active and inactive calls. Calls come from the whole dose curve; as a rule, active = well fitted cell-killing curve with a large enough effect in the repeat runs; inconclusive = weak or mixed curves, or effect the other way; inactive = flat fitted curve, though single readings scatter.
quantityMeasured: outcome

molecule	outcome
CCCCN(CCCC)c1ccc(C(=O)c2ccccc2C(=O)O)c(O)c1	inactive
COCCCC/C(=N\OCCN)c1ccc(C(F)(F)F)cc1	inactive
Cc1ccc(O)c2ncccc12	inactive
Oc1ccc(C2(c3ccc(O)cc3)CC3CC2C2CCCC32)cc1 (configuration not stated)	inactive
O=[N+]([O-])c1cc(Cl)c(Cl)c(Cl)c1Cl	inactive

Output measured outcome for this item: CCCC/C=C/CCCCO
inactive

Output measured outcome for this item: COc1cc(-c2ccc(N=C=O)c(OC)c2)ccc1N=C=O
inactive

====

# protocolNotes: A CellTox Green Cytotoxicity Assay to monitor cytotoxicity in HEK293 cells - 8 hour (AID 1224884); further: nearly all actives have a fitted effect of over 35% in size
# testSettings: CellTox Green fluorescence; series mostly up to 76.8 µM
Records with an inconclusive call do not appear. Activity calls are given as the source filed them. The call rests on the fitted dose curve; in most records, active means well fitted activation curve with a large enough effect in the repeat runs; inconclusive means weak or mixed curves; inactive means flat fitted curve, though single readings scatter.
Choose the fitting class; nothing outside active, inactive is accepted.

Sample answers from the record:
molecule	group
O=C(Nc1ccc(Oc2ccc(Cl)cc2)c(Cl)c1)c1cc(I)cc(I)c1O	inactive
CCC(Cl)C(Cl)C(Cl)CC(Cl)C(Cl)C(C)Cl (stereo unspecified)	inactive
OCCN1CCN(CC/C=C2/c3ccccc3Sc3ccc(C(F)(F)F)cc32)CC1	active
CCOc1ccc2nc3cc(N)ccc3c(N)c2c1	inactive
CCCCC(CC)CN=C(N)NC(N)=NCCCCCCN=C(N)NC(N)=NCC(CC)CCCC (stereo unspecified)	active

GET /call?item= COC(=O)C1=C(C)NC(C)=C(C(=O)OCCc2ccc(N3CCN(C(c4ccccc4)c4ccccc4)CC3)cc2)C1c1cccc([N+](=O)[O-])c1 (stereo unspecified) returns the recorded outcome of this test.
inactive

GET /call?item= CSc1cnc(C)cn1 returns the recorded outcome of this test.
active

GET /call?item= C/C=C(\C)C(=O)OCc1ccccc1 returns the recorded outcome of this test.
inactive

GET /call?item= CCCCCCCC[N+](CCCCCCCC)(CCCCCCCC)CCCCCCCC returns the recorded outcome of this test.
active

GET /call?item= COC(=O)C1=C(C)NC(C)=C(C(=O)OCC(C)C)C1c1ccccc1[N+](=O)[O-] (stereo unspecified) returns the recorded outcome of this test.
inactive

GET /call?item= O=C1CCCCCN1SSN1CCCCCC1=O returns the recorded outcome of this test.
inactive

====

# protocolNotes: qHTS assay to identify small molecule antagonists of the peroxisome proliferator-activated receptor delta (PPARd) signaling pathway - cell viability counter screen (AID 743213); further: nearly all actives have a fitted effect of over 50% in size
# testSettings: PPARd-bla HEK293H viability, CellTiter-Glo luminescence, 17 h; series mostly up to 62 µM
Results filed as inconclusive are left out. Active and inactive are the calls of the source. Calls come from the whole dose curve; as a rule, active = well fitted cell-killing curve with a large enough effect in the repeat runs; inconclusive = weak or mixed curves; inactive = no such curve, though single readings can be large or run the other way.
Choose the fitting class; nothing outside yes for active, no for inactive is accepted.

Sample answers from the record:
compound	group
CCCC1O[C@@H]2C[C@H]3[C@@H]4CCC5=CC(=O)C=C[C@]5(C)[C@H]4[C@@H](O)C[C@]3(C)[C@]2(C(=O)CO)O1 (stereo partly specified)	no
OC1(c2ccc(Cl)c(C(F)(F)F)c2)CCN(CCCC(c2ccc(F)cc2)c2ccc(F)cc2)CC1	yes
O=C(OC[C@H]1O[C@@H](OC(=O)c2cc(O)c(O)c(OC(=O)c3cc(O)c(O)c(O)c3)c2)[C@H](OC(=O)c2cc(O)c(O)c(OC(=O)c3cc(O)c(O)c(O)c3)c2)[C@@H](OC(=O)c2cc(O)c(O)c(OC(=O)c3cc(O)c(O)c(O)c3)c2)[C@@H]1OC(=O)c1cc(O)c(O)c(OC(=O)c2cc(O)c(O)c(O)c2)c1)c1cc(O)c(O)c(OC(=O)c2cc(O)c(O)c(O)c2)c1	yes
CCCN(CCC)C(=O)C(CCC(=O)OCCCN1CCN(CCOC(=O)Cc2c(C)n(C(=O)c3ccc(Cl)cc3)c3ccc(OC)cc23)CC1)NC(=O)c1ccccc1 (stereo unspecified)	yes
Cc1cc(N)c(S(=O)(=O)O)cc1Cl	no

GET /call?item= C=CC(=O)OCCn1c(=O)n(CCOC(=O)C=C)c(=O)n(CCOC(=O)C=C)c1=O returns the recorded outcome of this test.
yes
